test description: Selectivity index, ratio of CC50 for human MT4 cells to EC50 for HIV1
Assay type: toxicity, cell-based
measurement parameters: read-out: Ratio CC50/EC50
measured quantity: selectivity ratio

Example cases with answers are listed next.
CC(COC(=S)Nc1ccc([N+](=O)[O-])cc1)c1ccccc1 (racemic)    > 167
CC(OC(=S)Nc1ccc([N+](=O)[O-])cc1)c1ccc(Cl)cc1 (racemic)    > 14
CC(OC(=S)Nc1ccccc1)c1ccc(Cl)cc1 (racemic)    > 19

Challenge: If you can, please state the reported selectivity ratio value of COc1ccccc1CCOC(=S)Nc1ccc(Cl)c(Cl)c1 .
Response given: > 150

Challenge: Could you share which selectivity ratio value was measured for CC(OC(=S)Nc1ccc(Cl)cc1)c1ccc(-c2ccccc2)cc1 (racemic) ?
Response given: > 1.8

Reference source for all entries: ChEMBL document CHEMBL1156536
